src = patent US20230049152A1

target: T1, human CCR8 (human, UniProt P51685 1-355); assay: flow cytometry, CHO-huCCR8.Gna15 cells, relative to rb.Ab5
T1 construct: the assay field says which; also called hCCR8; huCCR8
Hi there, I'd appreciate the recorded Relative MFI for every entry that follows.
Answers are plain numbers, in ratio.

BINDER	UNIT_ANNOTATION	Relative MFI
hu.Ab5.H1L3 (antibody, human IgG1, kappa, V domains shown) VH: EQQLLESGGGLVQPGGSLRLSCAVSGIDLSTYAMGWVRQAPGKGLEWIGLIHRSGRTYYATWAKGRFTISKDSSKTTVYLQMNSLRAEDTAVYFCTRSYPDYSATASIWGPGTTVTVSS VL: DIQVTQSPSSLSASVGDRVTITCQASENIANALAWYQQKPGKAPKFLIYGASNLASGVPSRFSGSGSGTDFTFTISSLQPEDIATYYCQQAYYGNSFVEGTFGGGTKVEIKR	ratio	0.81
rb.Ab5 (antibody, V domains shown, Rabbit variable regions; also called parental rabbit antibody Ab5) VH: QSVEESGGRLVSPGTPLTLTCTVSGIDLSTYAMGWVRQAPGKGLEWIGLIHRSGRTYYATWAKGRFTISKTSSTTVDLKITSPTTEDTATYFCTRSYPDYSATASIWGPGTLVTVSS VL: DIVVTQTPASVEAAVGGTVTIKCQASENIANALAWYQQKSGQPPMFLIYGASNLASGVSSRFKGSGSGTEFTLTISDLECADAAVYYCQCAYYGNSFVEGTFGGGTEVVVK	ratio	1
hu.Ab5.H1L4 (antibody, human IgG1, kappa, V domains shown) VH: EQQLLESGGGLVQPGGSLRLSCAVSGIDLSTYAMGWVRQAPGKGLEWIGLIHRSGRTYYATWAKGRFTISKDSSKTTVYLQMNSLRAEDTAVYFCTRSYPDYSATASIWGPGTTVTVSS VL: DIQVTQSPSSLSASVGDRVTITCQASENIANALAWYQQKPGKPPKLLIYGASNLASGVPSRFSGSGSGTDFTFTISSLQPEDIATYYCQQAYYGNSFVEGTFGGGTKVEIKR	ratio	0.51

// next entry
Need Relative MFI of hu.Ab5.H1L5 (antibody, human IgG1, kappa, V domains shown) VH: EQQLLESGGGLVQPGGSLRLSCAVSGIDLSTYAMGWVRQAPGKGLEWIGLIHRSGRTYYATWAKGRFTISKDSSKTTVYLQMNSLRAEDTAVYFCTRSYPDYSATASIWGPGTTVTVSS VL: DIQMTQSPSSLSASVGDRVTITCQASENIANALAWYQQKPGKAPKLLIYGASNLASGVPSRFSGSGSGTDFTFTISSLQPEDIATYYCQQAYYGNSFVEGTFGGGTKVEIKR , thanks. 0.31
